# System: human tonsillar B cells
# Procedure Summary: BCR-stimulated IL-6 from human tonsillar B cells
# Type: cell-based
# Conditions Used: B-cell, BCR (anti-IgM)
pIC50: −log10 of the molar value.

Item Smiles: Cc1c(-c2c(F)cc(C(N)=O)c3[nH]c4c(c23)CC[C@H](C(C)(C)O)C4)cccc1-n1c(=O)c2cccc(F)c2n(C)c1=O
pIC50: 8.30

* * *

# System: human B cells
# Procedure Summary: Antigen receptor-dependent signaling and functional endpoints in human B cells (summary)
# Assay type: cell-based
# Conditions Used: read-out: IC50, antigen receptor-dependent signaling and functional endpoints (cytokine production, co-stimulatory molecule expression, proliferation)
pIC50: −log10 of the molar value.

Item Smiles: Cc1c(-c2c(F)cc(C(N)=O)c3[nH]c4c(c23)CC[C@H](C(C)(C)O)C4)cccc1-n1c(=O)c2cccc(F)c2n(C)c1=O
pIC50: ≥ 8.30

This collection of values is drawn from paper PMC5524405.
